Entries and their self-splicing fitness (ln)
# method: self-splicing fitness, log relative to wild type (ln ratio); higher = more splicing; Tetrahymena group I intron in knt gene, E. coli kanamycin selection, DiMSum; sequences stand for … in CUCUCU…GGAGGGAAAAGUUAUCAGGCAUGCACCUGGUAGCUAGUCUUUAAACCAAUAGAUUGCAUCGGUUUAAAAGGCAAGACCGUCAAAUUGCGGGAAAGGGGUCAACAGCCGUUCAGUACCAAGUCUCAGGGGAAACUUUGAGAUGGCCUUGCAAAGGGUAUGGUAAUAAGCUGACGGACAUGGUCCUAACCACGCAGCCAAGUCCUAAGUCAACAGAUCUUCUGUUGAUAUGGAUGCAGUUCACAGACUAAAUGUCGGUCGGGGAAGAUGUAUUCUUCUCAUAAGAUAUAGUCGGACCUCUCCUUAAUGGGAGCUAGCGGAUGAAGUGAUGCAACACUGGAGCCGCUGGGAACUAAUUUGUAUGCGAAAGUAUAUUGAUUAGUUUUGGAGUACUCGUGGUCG;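 note: selection with 25 µg/mL kanamycin versus none on LB agar overnight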
# condition-summary: 30 °C
Give a plain numeric answer without units written out.

Here's what some known entries look like.
Could you tell me which self-splicing fitness (ln) is on file for CAUCAGCAAUAUUACGUGUC ? -3.93

And then UACUAGCAAUAUUACGUUCU , what is it? -2.47

And then UCUCAGCAAUAUUACGUUCU , what is it? -3.49

And then GGCCAGCAAUAUUACGAGUC , what is it? -2.16

And then CAUCAGCAAUAUUACGGAAC , what is it? -2.6

And then UAGCAGCAAUAUUACGUGAU , what is it? -3.42

And then UUGUAGCAAUAUUACGGGGC , what is it? -3.56

And then AGAAAGCAAUAUUACGAGUA , what is it? -2.18

Continuing:
Could you tell me which self-splicing fitness (ln) is on file for CUUUAGCAAUAUUACGCGUC ? -4.35

And then UCACAGCAAUAUUACGAGCG , what is it? -0.409

And then ACCGAGCAAUAUUACGGAGC , what is it? -3.33
